Assay: Caco-2 cell permeability
Format: in vitro ADME
Conditions: human; Caco-2 monolayer, 10 µM, pH 7.4, 37 °C, apical to basolateral
attribute.measured: Papp A→B at 60 min, 10 µM
Please state the number and follow it with the unit.

IN: Return value of Papp A→B at 60 min, 10 µM for input `CCCN(CCCCC(=O)Nc1nc2c(OC)ccc(OC)c2s1)C1Cc2ccccc2C1` , no commentary.
OUT: 3.8 ×10⁻⁶ cm/s

====

Molecular target: Human A2AAR (Homo sapiens, UniProt P29274)
Sequence (P29274 whole entry): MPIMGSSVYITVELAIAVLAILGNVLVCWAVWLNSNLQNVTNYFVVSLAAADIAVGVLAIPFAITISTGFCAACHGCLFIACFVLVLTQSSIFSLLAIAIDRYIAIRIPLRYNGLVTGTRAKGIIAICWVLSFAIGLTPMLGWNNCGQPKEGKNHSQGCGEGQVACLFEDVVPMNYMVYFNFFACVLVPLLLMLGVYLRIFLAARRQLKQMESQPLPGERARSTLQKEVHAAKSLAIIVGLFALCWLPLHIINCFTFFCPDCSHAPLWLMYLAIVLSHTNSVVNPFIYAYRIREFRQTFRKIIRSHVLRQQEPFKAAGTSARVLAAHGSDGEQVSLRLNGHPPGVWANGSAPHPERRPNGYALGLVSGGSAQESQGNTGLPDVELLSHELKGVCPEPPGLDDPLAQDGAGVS
Group membership follows Ki per the scheme low range = under 400 nM, mid range = from 400 nM up to 600 nM, high range = 600 nM and over

IN: Class (by measured Ki) for `CCCN(CCCCC(=O)Nc1nc2c(OC)ccc(Cl)c2s1)C1Cc2ccccc2C1`
OUT: mid range

IN: For the record `CN(CCCCC(=O)Nc1nc2c(Br)cccc2s1)C1Cc2ccccc2C1` , report the class its Ki corresponds to.
OUT: low range

IN: // return the class label for `CN(CCCCNc1nc(-c2ccccc2)nc2[nH]ccc12)C1Cc2ccccc2C1`
OUT: high range

IN: Field: class (Ki) — entry: `Cc1cccc2sc(NC(=O)CCCN(C)C3Cc4ccccc4C3)nc12`
OUT: high range

IN: Class for `COc1ccc(OC)c2sc(NC(=O)CCN(C)C3Cc4ccccc4C3)nc12` ?
OUT: low range

IN: Which Ki band matches `CCCN(CCCCC(=O)Nc1nc2c(OC)ccc(C)c2s1)C1Cc2ccccc2C1` ?
OUT: mid range

IN: Assign a bin to `CN(CCCCC(=O)Nc1nc2c(Cl)cccc2s1)C1Cc2ccccc2C1`
OUT: mid range

IN: State the band of `CCN(CCCCC(=O)Nc1nc2c(OC)cccc2s1)C1Cc2ccccc2C1`
OUT: high range

====

Target: Human A1AR (Homo sapiens)
Construct: expressed in transfected cells; host or cells: CHO-A1AR cell line (membranes)
Sequence (P30542 whole entry): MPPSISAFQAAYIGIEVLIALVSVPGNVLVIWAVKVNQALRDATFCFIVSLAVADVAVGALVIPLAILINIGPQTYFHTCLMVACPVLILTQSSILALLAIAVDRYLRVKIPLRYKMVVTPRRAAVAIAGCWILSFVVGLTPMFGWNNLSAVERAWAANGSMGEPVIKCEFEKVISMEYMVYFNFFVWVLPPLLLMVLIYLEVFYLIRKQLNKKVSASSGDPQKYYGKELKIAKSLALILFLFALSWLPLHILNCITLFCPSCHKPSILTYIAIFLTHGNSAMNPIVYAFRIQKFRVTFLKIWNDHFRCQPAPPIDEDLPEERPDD
Assay: A1AR competition binding ([3H]-DPCPX)
Conditions: 10 µM compound, n=2
attribute.measured: A1AR % displacement at 10 µM (%)
Form entry: value (%) — number only.

IN: Answer with the recorded A1AR % displacement at 10 µM of `CCCN(CCCCC(=O)Nc1nc2c(OC)cccc2s1)C1Cc2ccccc2C1` only.
OUT: 22

IN: Please give measured A1AR % displacement at 10 µM of the following entry: `CCCN(CCCCC(=O)Nc1nc2c(Br)cccc2s1)C1Cc2ccccc2C1`
OUT: 37

IN: Query A1AR % displacement at 10 µM for `COc1cccc2sc(NC(=O)CCCCN(C)C3Cc4ccccc4C3)nc12`
OUT: 18

IN: Please give measured A1AR % displacement at 10 µM of the following entry: `CCCN(CCCCC(=O)Nc1nc2c(OC)ccc(OC)c2s1)C1Cc2ccccc2C1`
OUT: 35

====

Molecular target: Human D2R (Homo sapiens, UniProt P14416)
Sequence (P14416 whole entry): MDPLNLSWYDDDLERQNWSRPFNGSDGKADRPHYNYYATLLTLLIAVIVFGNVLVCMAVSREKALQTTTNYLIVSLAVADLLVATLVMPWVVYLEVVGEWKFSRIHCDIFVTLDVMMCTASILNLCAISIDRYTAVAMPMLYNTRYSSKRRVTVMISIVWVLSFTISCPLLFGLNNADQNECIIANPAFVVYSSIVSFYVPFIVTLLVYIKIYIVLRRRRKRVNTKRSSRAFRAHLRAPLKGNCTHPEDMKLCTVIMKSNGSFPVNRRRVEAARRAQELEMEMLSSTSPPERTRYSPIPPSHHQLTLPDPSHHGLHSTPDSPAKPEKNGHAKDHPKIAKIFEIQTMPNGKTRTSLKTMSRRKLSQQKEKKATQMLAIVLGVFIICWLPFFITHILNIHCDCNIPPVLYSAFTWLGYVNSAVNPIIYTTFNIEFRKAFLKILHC
Please assign False whenever Ki is at or above 0.6 µM, and True whenever it is below.

IN: Item `Cc1ccc(NC(=O)CCCCN(C)C2Cc3ccccc3C2)nc1` : Ki beneath 0.6 µM, strictly?
OUT: False

IN: Hi there! Is Ki for `Cc1cc(C)n2nc(NCCCCN(C)C3Cc4ccccc4C3)nc2n1` below 0.6 µM, do you know?
OUT: True

IN: Strictly below 0.6 µM in Ki? `Cc1cccc2sc(NC(=O)CCCN(C)C3Cc4ccccc4C3)nc12`
OUT: False

IN: Is it true that Ki reported for `CCN(CCC(=O)Nc1nc2c(OC)ccc(C)c2s1)C1Cc2ccccc2C1` is less than 0.6 µM?
OUT: False

IN: Ki under 0.6 µM? Item: `CN(CCCCNc1nc(-c2ccccc2)nc2[nH]ccc12)C1Cc2ccccc2C1`
OUT: True

IN: hey, is Ki for `CCOc1cc(C)nc(NCCCCN(C)C2Cc3ccccc3C2)n1` lower than 0.6 µM or not?
OUT: True

====

Experiment: Blood-brain distribution in rats
Type: in vivo
Conditions: male, Sprague Dawley, rat, brain/plasma, 24 mg kg^−1 IP, peak after 30 min, mean±SD, read-out: brain-to-plasma ratio
attribute.measured: Kp at 0.5 h
Just the number, please.

IN: Tell us which Kp at 0.5 h value is on record for `CCCN(CCCCC(=O)Nc1nc2c(OC)ccc(OC)c2s1)C1Cc2ccccc2C1`
OUT: 0.79

====

Molecular target: D4R (Homo sapiens, UniProt P21917, DEL265-296)
Sequence (P21917 with tags, fused parts or gaps DEL265-296): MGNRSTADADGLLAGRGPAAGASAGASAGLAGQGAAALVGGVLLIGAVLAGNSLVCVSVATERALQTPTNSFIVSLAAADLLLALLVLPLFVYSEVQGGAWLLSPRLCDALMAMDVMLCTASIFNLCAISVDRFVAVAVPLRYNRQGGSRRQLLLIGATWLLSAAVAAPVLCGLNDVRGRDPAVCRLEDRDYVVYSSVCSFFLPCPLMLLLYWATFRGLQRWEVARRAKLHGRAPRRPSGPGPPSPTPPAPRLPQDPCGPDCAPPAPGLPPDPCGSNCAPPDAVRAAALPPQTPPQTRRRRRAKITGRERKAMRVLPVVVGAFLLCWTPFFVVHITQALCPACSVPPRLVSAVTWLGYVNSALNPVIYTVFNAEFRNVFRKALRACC
Test: D4R competition binding ([3H]-spiperone)
Conditions: mean±SEM of two experiments in duplicate; read-out: D4R binding affinity Ki
attribute.measured: pKi
In plain terms, pKi is the concentration in mol/L turned into minus its base-10 logarithm.

IN: Using the record for CCCN(CCCCC(=O)Nc1nc2c(OC)cccc2s1)C1Cc2ccccc2C1 [Compound 26] , state its measured pKi.
OUT: 6.15

====

Exercise: state measured pKi for each of the molecules provided.
Please treat pKi as minus the base-10 logarithm of the molar concentration.

IN: Report measured pKi on Human A2AAR (Homo sapiens, UniProt P29274); entry: CCCN(CCCCC(=O)Nc1nc2c(OC)ccc(OC)c2s1)C1Cc2ccccc2C1 [Compound 30]
OUT: 6.80

IN: Write down measured pKi (Human A2AAR (Homo sapiens, UniProt P29274)) for this molecule. CCCN(CCCCC(=O)Nc1nc2c(F)cccc2s1)C1Cc2ccccc2C1 [Compound 23]
OUT: 5.54

IN: Quote pKi with test system Human A2AAR (Homo sapiens, UniProt P29274) for CCCN(CCCCC(=O)Nc1nc2c(CC)cccc2s1)C1Cc2ccccc2C1 [Compound 24]
OUT: 4.96

====

Target: Human D2R (Homo sapiens, UniProt P14416)
Construct: expressed in transfected cells; host or cells: CHO-D2R #S20 cell line (membranes)
Test: D2R functional cAMP (HTRF) assay in CHO-D2 #S20 cells
Assay type: cell-based
Settings: relative to the maximal effect of dopamine
attribute.measured: Emax (%)
Answer format: numeric, % implied, no suffix.

IN: Return Emax (reported value) for this molecule: CCCN(CCCCC(=O)Nc1nc2c(OC)ccc(C)c2s1)C1Cc2ccccc2C1 [Compound 29]
OUT: 105

IN: Read the entry CN(CCCC(=O)Nc1nc2c(Br)cccc2s1)C1Cc2ccccc2C1 [Compound 32] and write its reported Emax.
OUT: 51

IN: Supply measured Emax of COc1ccc(OC)c2sc(NC(=O)CCN(C)C3Cc4ccccc4C3)nc12 [Compound 37] in your reply.
OUT: 103

IN: Please report Emax for the following molecule: Cc1cccc2sc(NC(=O)CCCN(C)C3Cc4ccccc4C3)nc12 [Compound 31]
OUT: 88

IN: Give a short answer stating reported Emax for CN(CCCCC(=O)Nc1nc2c(Br)cccc2s1)C1Cc2ccccc2C1 [Compound 20] .
OUT: 62

IN: Give a short answer stating reported Emax for CCN(CCCCC(=O)Nc1nc2c(Br)cccc2s1)C1Cc2ccccc2C1 [Compound 22] .
OUT: 119

IN: Provide only the value of recorded Emax for CCN(CCC(=O)Nc1nc2c(OC)ccc(OC)c2s1)C1Cc2ccccc2C1 [Compound 40]
OUT: 105

IN: Using the record for COc1cccc2sc(NC(=O)CCCCN(C)C3Cc4ccccc4C3)nc12 [Compound 18] , state its measured Emax.
OUT: 89

IN: Read the entry CCCN(CCCCC(=O)Nc1nc2c(OC)ccc(Cl)c2s1)C1Cc2ccccc2C1 [Compound 28] and write its reported Emax.
OUT: 104

IN: Consider the molecule CCCN(CCCCC(=O)Nc1nc2c(Br)cccc2s1)C1Cc2ccccc2C1 [Compound 27] and give its recorded Emax.
OUT: 89

IN: Note Emax for the molecule shown: CCCN(CCCCC(=O)Nc1nc2c(C)cccc2s1)C1Cc2ccccc2C1 [Compound 25]
OUT: 81

IN: Quick one: give measured Emax for CCCN(CCCCC(=O)Nc1nc2c(OC)cccc2s1)C1Cc2ccccc2C1 [Compound 26]
OUT: 94

IN: Please report the measured Emax for CN(CCCCC(=O)Nc1nc2c(Cl)cccc2s1)C1Cc2ccccc2C1 [Compound 19]
OUT: 82

IN: Output Emax of CCCN(CCCCC(=O)Nc1nc2c(OC)ccc(OC)c2s1)C1Cc2ccccc2C1 [Compound 30]
OUT: 77

IN: For the molecule CN(CCC(=O)Nc1nc2c(Br)cccc2s1)C1Cc2ccccc2C1 [Compound 33] , give its measured Emax value.
OUT: 81

IN: State its Emax for this molecule: CCN(CCC(=O)Nc1nc2c(OC)ccc(C)c2s1)C1Cc2ccccc2C1 [Compound 39]
OUT: 107

IN: Give reported Emax value for Cc1cccc2sc(NC(=O)CCCCN(C)C3Cc4ccccc4C3)nc12 [Compound 2]
OUT: 93

====

Molecular target: Human A2AAR (Homo sapiens, UniProt P29274)
Experiment: A2AAR competition binding ([3H]-ZM241385 displacement)
Set-up: expressed in transfected cells; host or cells: HeLa-A2AAR cell line (membranes)
Conditions: 10 μM compound, mean±SEM of three experiments
I'd appreciate it if you could supply A2AAR % displacement at 10 μM values for the items below.

IN: Annotate the molecule CN(CCCCC(=O)Nc1nc2ncccc2[nH]1)C1Cc2ccccc2C1 [Compound 8] with its measured A2AAR % displacement at 10 μM.
OUT: 5 ± 1%

IN: Fill in reported A2AAR % displacement at 10 μM for this entry: CN(CCCCNc1ncc(-c2ccccc2)o1)C1Cc2ccccc2C1 [Compound 9]
OUT: 9 ± 6%

IN: Output A2AAR % displacement at 10 μM of CN(CCCCNc1ncc2ccn(C)c2n1)C1Cc2ccccc2C1 [Compound 10]
OUT: 8 ± 3%
